System: Fnk, JAB, LIX, bcl-3 and SHP
Experiment description: Liver expression of Fnk, JAB, LIX, bcl-3 and SHP by realtime PCR after estrogen receptor ligand pretreatment and IL-1β
Experimental context: mice; 100 ug/kg/day EE, 1 or 10 mg/kg/day E2, 30 mg/kg/day genistein, 5 mg/kg/day raloxifene, 10 mg/kg/day ICI182780; plus IL-1β
Value kind: effect on regulation of liver Fnk, JAB, LIX, bcl-3 and SHP expression vs IL-1β alone

>>> val("C#C[C@]1(O)CC[C@H]2[C@@H]3CCc4cc(O)ccc4[C@H]3CC[C@@]21C")
"greatest effect"
>>> val("C[C@]12CC[C@@H]3c4ccc(O)cc4CC[C@H]3[C@@H]1CC[C@@H]2O [E2, 17β-estradiol]")
"greatest effect"
